Test system: MCC-13
Test: qHTS assay to identify novel small-molecules to repurpose for Merkel cell carcinoma treatment (AID 1296009); also: nearly all actives have a fitted effect of over 60% in size
Conditions: MCC and control cell lines, CellTiter-Glo viability, 72 h; series mostly up to 46 µM
Inconclusive results are not listed. Active and inactive are the calls of the source. Calls follow the shape of the dose curve; as a rule, active = well fitted inhibition curve with a large enough effect; inconclusive = small, poorly fitted or top-dose-only effect; inactive = flat fitted curve, though single readings scatter.
Outcome codes: active, inactive

In [3]: df
Out[3]:
                                   compound  experimental_target  qualitative_label
0  C[C@]12COC(=O)C[C@@H]1CC[C@@H]1[C@H]2CC[C@@]2(C)[C@H]1CC[C@]2(C)O               MCC-13           inactive
1    CC(C)Oc1cccc(NC(=O)c2ccccc2C(F)(F)F)c1               MCC-13           inactive
2      NC1=NC(=O)N2CC12 (centres undefined)               MCC-13           inactive
3  CC=C(C)C(=O)O[C@H]1C(C)=C2[C@@H]3OC(=O)[C@@](C)(O)[C@@]3(O)[C@@H](OC(=O)CCC)C[C@](C)(OC(C)=O)[C@@H]2[C@@H]1OC(=O)CCCCCCC               MCC-13             active
4  Cc1nc(-c2ccc(-c3ccc(C(=O)N4CCc5cc6c(cc54)C4(CCN(C)CC4)CO6)cc3)c(C)c2)no1               MCC-13           inactive
5  Oc1ccc2c3c1O[C@H]1[C@@H](O)C=C[C@H]4[C@@H](C2)NCC[C@@]341               MCC-13           inactive
6  C[C@](O)(COc1ccc(C#N)cc1)C(=O)Nc1ccc(C#N)c(C(F)(F)F)c1               MCC-13           inactive
7  CC(Cc1ccc(O)cc1)NCC(O)c1cc(O)cc(O)c1 (centres undefined)               MCC-13           inactive
8                   CC(=O)[O][Hg][c]1ccccc1               MCC-13             active
